- System: BALB/C mice
- Assay procedure: In vivo imaging of protein expressed by LNP-carrying Fluc-mRNA in mice
- Condition info: at 96 hours, ratio to YK-CAP-001
Quantity kind: average radiation intensity, times that of YK-CAP-001
Provide the measurement as a number trailed by its unit.

Reference set (3 entries):
Compound	Assay target	Observed result
COC1C(OP(=O)([O-])OC[C@H]2O[C@@H](n3cnc4c(=O)[nH]c(N)nc43)C(O)C2O)[C@@H](COP(=O)(O)OP(=O)(O)OP(=O)(O)OC[C@]23O[C@@H]([n+]4cn(C)c5c(=O)[nH]c(N)nc54)C(O[C@H]2CCS(C)(=O)=O)C3O)O[C@H]1n1cnc2c(N)ncnc21 (stereo partly shown)	BALB/C mice	2.5 times
COC1C(OP(=O)([O-])OC[C@H]2O[C@@H](n3cnc4c(=O)[nH]c(N)nc43)C(O)C2O)[C@@H](COP(=O)(O)OP(=O)(O)OP(=O)(O)OC[C@]23O[C@@H]([n+]4cn(C)c5c(=O)[nH]c(N)nc54)C(O[C@H]2CC(=O)N(C)C)C3O)O[C@H]1n1cnc2c(N)ncnc21 (stereo partly shown)	BALB/C mice	1.3 times
COC1C(OP(=O)([O-])OC[C@H]2O[C@@H](n3cnc4c(=O)[nH]c(N)nc43)C(O)C2O)[C@@H](COP(=O)(O)OP(=O)(O)OP(=O)(O)OC[C@]23O[C@@H]([n+]4cn(C)c5c(=O)[nH]c(N)nc54)C(O[C@H]2CC(F)F)C3O)O[C@H]1n1cnc2c(N)ncnc21 (stereo partly shown)	BALB/C mice	2.6 times

Given the compound COC1C(OP(=O)([O-])OC[C@H]2O[C@@H](n3cnc4c(=O)[nH]c(N)nc43)C(O)C2O)[C@@H](COP(=O)(O)OP(=O)(O)OP(=O)(O)OC[C@]23O[C@@H]([n+]4cn(C)c5c(=O)[nH]c(N)nc54)C(O[C@H]2CCS(=O)(=O)N(C)C)C3O)O[C@H]1n1cnc2c(N)ncnc21 (stereo partly shown) , what is its reported average radiation intensity, times that of YK-CAP-001? 1.7 times
